This collection of values is drawn from the supplement of paper PMC5908809.

tested on: KAI3 (IL-2 2.5 ng/mL); assay: percent inhibition of viability; higher = more inhibition; conditions: 72 h; 100 nM
Listed here are compounds together with their documented percent inhibition of viability.

>  <Compound>
O=C1NC(=O)[C@@H](c2cn3c4c(cccc24)CCC3)[C@@H]1c1c[nH]c2ccccc12 [Tivantinib] (max concentration tested 1000 nM)

>  <percent inhibition of viability [%]>
11.4

$$$$
>  <Compound>
CC(C)(C)NC(=O)[C@H]1CC[C@H]2[C@@H]3CC[C@H]4NC(=O)C=C[C@]4(C)[C@H]3CC[C@]12C [Finasteride] (max concentration tested 10000 nM)

>  <percent inhibition of viability [%]>
10.5

$$$$
>  <Compound>
O=C(O)c1ccc(-c2c[nH]c3ncc(-c4ccccc4)cc23)cc1C1CCCC1 (max concentration tested 10000 nM)

>  <percent inhibition of viability [%]>
12.9

$$$$
>  <Compound>
N#CCNC(=O)c1ccc(-c2ccnc(Nc3ccc(N4CCOCC4)cc3)n2)cc1 [Momelotinib] (max concentration tested 10000 nM)

>  <percent inhibition of viability [%]>
21.2

$$$$
>  <Compound>
CC/C(=C(\c1ccccc1)c1ccc(OCCN(C)C)cc1)c1ccccc1 [Tamoxifen] (max concentration tested 10000 nM)

>  <percent inhibition of viability [%]>
3.87

$$$$
>  <Compound>
CC(C)[C@H](C(=O)Nc1ccc(C(=O)NO)cc1)c1ccccc1 [AR-42] (max concentration tested 10000 nM)

>  <percent inhibition of viability [%]>
56.8

$$$$

###

Listed here are compounds together with their documented drug sensitivity score.
system: NK-92 (IL-2 2.5 ng/mL); test: drug sensitivity score (DSS) (DSS units); higher = more sensitive; extreme values may be limits of the assay; settings: 72 h
Property: drug sensitivity score

>  <Compound>
C[C@@H]1C[C@H]2[C@@H]3CCC4=CC(=O)C=C[C@]4(C)[C@@]3(F)[C@@H](O)C[C@]2(C)[C@@]1(O)C(=O)CO [Dexamethasone] (max concentration tested 10000 nM)

>  <Result value>
0

$$$$
>  <Compound>
Clc1ccc(Nc2nnc(Cc3ccncc3)c3ccccc23)cc1 [Vatalanib] (max concentration tested 10000 nM)

>  <Result value>
2.23

$$$$
>  <Compound>
O=C(NOCCO)c1ccc2cncn2c1Nc1ccc(I)cc1F [GDC-0623] (max concentration tested 2500 nM)

>  <Result value>
0.89

$$$$
>  <Compound>
CO[C@H]1C[C@@H]2CC[C@@H](C)[C@@](O)(O2)C(=O)C(=O)N2CCCC[C@H]2C(=O)O[C@H]([C@H](C)C[C@@H]2CC[C@@H](OCCO)[C@H](OC)C2)CC(=O)[C@H](C)/C=C(\C)[C@@H](O)[C@@H](OC)C(=O)[C@H](C)C[C@H](C)/C=C/C=C/C=C/1C [Everolimus] (max concentration tested 100 nM)

>  <Result value>
1.27

$$$$
>  <Compound>
CC(C)Oc1cc(Nc2nc(N[C@@H](C)c3ccc(F)cn3)ncc2Cl)n[nH]1 [AZ-23] (max concentration tested 1000 nM)

>  <Result value>
0

$$$$

###

system: NK-YS (IL-2 2.5 ng/mL); assay: percent inhibition of viability; higher = more inhibition; conditions: 72 h; 10000 nM

>  <Compound>
CC/C(=C(\c1ccc(O)cc1)c1ccc(OCCN(C)C)cc1)c1ccccc1 [4-hydroxytamoxifen] (max concentration tested 10000 nM)

>  <percent inhibition of viability>
66.8%

$$$$
>  <Compound>
CNC(=O)c1ccccc1Sc1ccc2c(/C=C/c3ccccn3)n[nH]c2c1 [Axitinib] (max concentration tested 10000 nM)

>  <percent inhibition of viability>
85%

$$$$
>  <Compound>
N#CCNC(=O)c1ccc(-c2ccnc(Nc3ccc(N4CCOCC4)cc3)n2)cc1 [Momelotinib] (max concentration tested 10000 nM)

>  <percent inhibition of viability>
98.9%

$$$$
>  <Compound>
CC1(COc2ccc3c(c2)ncn3-c2ccc3cccc(N4CCC(N)CC4)c3n2)COC1 [Crenolanib] (max concentration tested 10000 nM)

>  <percent inhibition of viability>
101%

$$$$
>  <Compound>
CC[C@H](CC#N)OC(=O)N[C@@H](C)c1cccc(NC(=O)Nc2ccc(-c3cnco3)c(OC)c2)c1 [AVN944] (max concentration tested 10000 nM)

>  <percent inhibition of viability>
94%

$$$$
>  <Compound>
CCn1c(C(=O)N(C2CC2)C2CC2)cc2c3c(ncn3C)c(Nc3cc(C)n(C)n3)nc21 (max concentration tested 10000 nM)

>  <percent inhibition of viability>
36.6%

$$$$

###

test system: YT (IL-2 2.5 ng/mL); assay: percent inhibition of viability; higher = more inhibition; conditions: 72 h; 1 nM
Property: percent inhibition of viability (%)

>  <Compound>
NC1(c2ccc(-c3nc4ccn5c(=O)[nH]nc5c4cc3-c3ccccc3)cc2)CCC1 [MK-2206] (max concentration tested 1000 nM)

>  <Property>
percent inhibition of viability

>  <Result unit>
%

>  <Result value>
-0.89

$$$$
>  <Compound>
Cc1ccc(Nc2nccc(N(C)c3ccc4c(C)n(C)nc4c3)n2)cc1S(N)(=O)=O [Pazopanib] (max concentration tested 10000 nM)

>  <Property>
percent inhibition of viability

>  <Result unit>
%

>  <Result value>
0.54

$$$$
>  <Compound>
N#CCNC(=O)c1ccc(-c2ccnc(Nc3ccc(N4CCOCC4)cc3)n2)cc1 [Momelotinib] (max concentration tested 10000 nM)

>  <Property>
percent inhibition of viability

>  <Result unit>
%

>  <Result value>
-0.29

$$$$
>  <Compound>
CC[C@H](C)C(=O)O[C@H]1C[C@@H](C)C=C2C=C[C@H](C)[C@H](CC[C@@H]3C[C@@H](O)CC(=O)O3)[C@H]21 [Lovastatin] (max concentration tested 10000 nM)

>  <Property>
percent inhibition of viability

>  <Result unit>
%

>  <Result value>
1.08

$$$$
>  <Compound>
Cn1c(Nc2ccc(C(F)(F)F)cc2)nc2cc(Oc3ccnc(-c4ncc(C(F)(F)F)[nH]4)c3)ccc21 [RAF265] (max concentration tested 1000 nM)

>  <Property>
percent inhibition of viability

>  <Result unit>
%

>  <Result value>
-2.24

$$$$
>  <Compound>
Nc1ccccc1NC(=O)c1ccc(CNc2nccc(-c3cccnc3)n2)cc1 [Mocetinostat] (max concentration tested 10000 nM)

>  <Property>
percent inhibition of viability

>  <Result unit>
%

>  <Result value>
-3.42

$$$$

###

test system: normal NK cells expanded with K562-aAPC; assay: drug sensitivity score (DSS) (DSS units); higher = more sensitive; extreme values may be limits of the assay; conditions: 72 h; IL-2 2.5 ng/mL
Cut-off 0.6 on drug sensitivity score, inclusive. At or above means y; below means n.

>  <Molecule>
CCCCCCCCc1ccc(CCC(N)(CO)CO)cc1 [Fingolimod] (max concentration tested 10000 nM)

>  <Assay system>
normal NK cells expanded with K562-aAPC

>  <Assigned category>
y

$$$$
>  <Molecule>
Cn1c(Nc2ccc(C(F)(F)F)cc2)nc2cc(Oc3ccnc(-c4ncc(C(F)(F)F)[nH]4)c3)ccc21 [RAF265] (max concentration tested 1000 nM)

>  <Assay system>
normal NK cells expanded with K562-aAPC

>  <Assigned category>
y

$$$$
>  <Molecule>
CC[C@]1(O)C[C@H]2CN(CCc3c([nH]c4ccccc34)[C@@](C(=O)OC)(c3cc4c(cc3OC)N(C=O)[C@H]3[C@@](O)(C(=O)OC)[C@H](OC(C)=O)[C@]5(CC)C=CCN6CC[C@]43[C@@H]65)C2)C1 [Vincristine] (max concentration tested 1000 nM)

>  <Assay system>
normal NK cells expanded with K562-aAPC

>  <Assigned category>
y

$$$$
>  <Molecule>
Nc1nc(Cl)nc2c1ncn2[C@@H]1O[C@H](CO)[C@@H](O)[C@@H]1F [Clofarabine] (max concentration tested 10000 nM)

>  <Assay system>
normal NK cells expanded with K562-aAPC

>  <Assigned category>
y

$$$$
>  <Molecule>
COc1cc([C@@H]2c3cc4c(cc3[C@@H](O[C@@H]3O[C@@H]5CO[C@@H](C)O[C@H]5[C@H](O)[C@H]3O)[C@H]3COC(=O)[C@H]23)OCO4)cc(OC)c1O [Etoposide] (max concentration tested 10000 nM)

>  <Assay system>
normal NK cells expanded with K562-aAPC

>  <Assigned category>
y

$$$$
>  <Molecule>
COc1ccc(Cl)c(Nc2nc3ccccc3nc2NS(=O)(=O)c2cccc(NC(=O)C(C)(C)N)c2)c1 [Pilaralisib] (max concentration tested 2500 nM)

>  <Assay system>
normal NK cells expanded with K562-aAPC

>  <Assigned category>
n

$$$$
>  <Molecule>
CC(C)n1cnc2c(NCCc3ccc(O)cc3)nc(-c3csc4ccccc34)nc21 [StemRegenin 1] (max concentration tested 10000 nM)

>  <Assay system>
normal NK cells expanded with K562-aAPC

>  <Assigned category>
n

$$$$
>  <Molecule>
O=P1(NCCCl)OCCCN1CCCl (stereo not drawn) [Ifosfamide] (max concentration tested 10000 nM)

>  <Assay system>
normal NK cells expanded with K562-aAPC

>  <Assigned category>
n

$$$$
>  <Molecule>
C[C@]12O[C@H](C[C@]1(O)CO)n1c3ccccc3c3c4c(c5c6ccccc6n2c5c31)CNC4=O [Lestaurtinib] (max concentration tested 1000 nM)

>  <Assay system>
normal NK cells expanded with K562-aAPC

>  <Assigned category>
y

$$$$
>  <Molecule>
CN(N=O)C(=O)N[C@@H](C=O)[C@@H](O)[C@H](O)[C@H](O)CO [Streptozocin] (max concentration tested 10000 nM)

>  <Assay system>
normal NK cells expanded with K562-aAPC

>  <Assigned category>
n

$$$$
>  <Molecule>
NS(=O)(=O)OC[C@@H]1C[C@@H](n2ccc3c(N[C@H]4CCc5ccccc54)ncnc32)C[C@@H]1O [Pevonedistat] (max concentration tested 10000 nM)

>  <Assay system>
normal NK cells expanded with K562-aAPC

>  <Assigned category>
y

$$$$
>  <Molecule>
COC(=O)N[C@@H](C)CNc1nccc(-c2cn(C(C)C)nc2-c2cc(Cl)cc(NS(C)(=O)=O)c2F)n1 [Encorafenib] (max concentration tested 1000 nM)

>  <Assay system>
normal NK cells expanded with K562-aAPC

>  <Assigned category>
n

$$$$
>  <Molecule>
N#CCNC(=O)c1ccc(-c2ccnc(Nc3ccc(N4CCOCC4)cc3)n2)cc1 [Momelotinib] (max concentration tested 10000 nM)

>  <Assay system>
normal NK cells expanded with K562-aAPC

>  <Assigned category>
y

$$$$
